apparent KD of MS2 coat protein values for the sequences below.
Test system: MS2 coat protein
Experiment: apparent KD of MS2 coat protein; designed switch direction (-1 OFF switch, 1 ON switch): 1; higher = weaker reporter binding
Settings: input ligand: microRNA oligo, concentration not stated
value-type: apparent KD of MS2 coat protein (nM)

{"polymer-sequence": "GCGAAGAGGUAAGGAUAUUCAUGGCAUAGACAUGAGGAUCACCCAUGUAGGAGACGAAUUAGAAGGAAGAAGGUACCAGGACGC [AK SSNG2-V2-18] (Eterna round: R96, puzzle: Same State NG 2)", "value-type": "apparent KD of MS2 coat protein", "unit-abbreviation": "nM", "assay-value": 111}
{"polymer-sequence": "UCAGUCAUGUAAGGAUAUGCAGCCGAAACGGCUGCAGAAGGUACUAUAAUUACAUGAGGAUCACCCAUGUUAUAAAUAAAAUAU [Mat - Same State NG 1 - JL mod - D66] (Eterna round: R96, puzzle: Same State NG 1)", "value-type": "apparent KD of MS2 coat protein", "unit-abbreviation": "nM", "assay-value": 43}
{"polymer-sequence": "AAUCAACGCCGAGGAUAUCGGCCUACAUGAGGAUCACCCAUGUUGGGACAUAAAUUAAUCUCGGCUGAGAAGGCGGGAGUUGAC [Eternabot solution 38] (Eterna round: R96, puzzle: Same State NG 2)", "value-type": "apparent KD of MS2 coat protein", "unit-abbreviation": "nM", "assay-value": 13.3}
{"polymer-sequence": "GCUUGCGGCGCAGGAUAUGGGUGCCUGUACAUGAGGAUCACCCAUGUUAAGGGACGGAUUACGAACCAGAAGGGCGUGGCGGGC [Ceerce] (Eterna round: R96, puzzle: Same State NG 2)", "value-type": "apparent KD of MS2 coat protein", "unit-abbreviation": "nM", "assay-value": 108}
{"polymer-sequence": "ACUUAGUACAAUUUAGAUCUACAUGAGGAUCACCCAUGUACUGAGGAUAUCAGCUCGUUUAGAGCUGAGAAGGCAGUAGUACUA [SSNG3/9-A3] (Eterna round: R96, puzzle: Same State NG 3)", "value-type": "apparent KD of MS2 coat protein", "unit-abbreviation": "nM", "assay-value": 26.2}
